tested on: MDA-MB-435
Classes used: label 1 for active, label 0 for inactive

| COMPOUND | GROUP |
| --- | --- |
| NCCCNc1nc2ccccc2c2c(=O)c3cc(F)cc(F)c3sc12 | label 0 |
| Cc1cc(Cl)cc2c(N=Nc3ccc(S(N)(=O)=O)cc3)c(O)[nH]c12 | label 0 |
| CSC1=Nc2c(c(C)c(-c3ccccc3)n2CCCN2CCCCC2)C2=NC(=O)C[C@H](C)N12 | label 0 |
| CCOC(=O)c1ccc(Nc2sc(C(=O)c3ccc(Br)cc3)c(N)c2C#N)cc1 | label 1 |
| N#Cc1c(NC(=O)NCc2ccccc2)sc2c1CCCC2 | label 1 |
| N=C(N)c1ccc(-c2ccc(-c3ccc(Cl)cc3Cl)o2)nc1 | label 0 |
| CCOC(=O)c1ccccc1OC(=O)NNc1ccccc1 | label 0 |
| CC[C@@H]1[C@@H](C)O[C@@](O)([C@@H](C)[C@H](O)[C@H](C)[C@H]2OC(=O)/C=C/C=C/[C@H](C)[C@@H]([C@@H](C)[C@@H](O)[C@H](C)[C@@]3(O)C[C@@H](O[C@H]4C[C@@H](O)[C@H](O)C(C)O4)[C@H](CC)[C@@H](C)O3)OC(=O)/C=C/C=C/[C@@H]2C)C[C@H]1O[C@@H]1C[C@@H](O)[C@H](O)C(C)O1 (some centres not stated) | label 1 |
| CC[C@H](NC(=O)[C@H]1CCCCN1C)C(=O)N(C)[C@H](C[C@@H](OC(C)=O)c1nc(C(=O)N[C@@H](Cc2ccccc2)C[C@H](C)C(=O)O)cs1)C(C)C | label 1 |
| CCCCCCCC/C=C/CCCCCCCC1=NC(C)(C)CN1CC(C)O (configuration not stated) | label 0 |
| CCN(CC)CCNc1ccc(C)c2sc3cc(Cl)ccc3c(=O)c12 | label 0 |
| CC[C@H]1CN2CCc3cc(OC)c(OC)cc3C2C[C@@H]1CC1NCCc2cc(OC)c(OC)cc21 (some centres not stated) | label 1 |

====

Attribute: TGI
system: SK-OV-3 ovarian; assay: NCI tumour cell line growth inhibition, 48 h
MEASUREMENT LABEL: TGI

| COMPOUND | MEASUREMENT LABEL | RECORDED VALUE |
| --- | --- | --- |
| CCOC(=O)[C@@H](C)C[C@H](Cc1ccccc1)NC(=O)c1nc([C@@H](C[C@H](C(C)C)N(C)C(=O)[C@@H](NC(=O)[C@H]2CCCCN2C)C(C)C)OC(C)=O)sc1CCOCc1ccccc1 | TGI | > 11.1 µM |
| COc1cc(/C=C2/SC(c3ccccc3)N(Cc3ccccc3)C2=O)cc(OC)c1OC (centres undefined) | TGI | > 100 µM |
| COc1ccc(/C=C(/C(=O)N2CCN(c3ccccc3)CC2)c2cc(OC)c(OC)c(OC)c2)cc1N | TGI | > 100 µM |
| CC(=O)Nc1ccccc1-c1nc2ccccc2nc1C | TGI | > 100 µM |

====

system: HCT-116 colon; experiment: NCI tumour cell line growth inhibition, 48 h

| COMPOUND | TEST TARGET | TGI |
| --- | --- | --- |
| COC(=O)/C(=N\NC(N)=O)C(C(=O)C(=O)Nc1ccccc1OC)c1nc2ccc([N+](=O)[O-])cc2[nH]c1=O (stereo not given) | HCT-116 colon | > 100 µM |
| N#Cc1c(NC(=O)NCc2ccccc2)sc2c1CCCC2 | HCT-116 colon | > 100 µM |
| CCOc1ccc2nc3nc(=O)[nH]c(C)c3c(NCCCN(CC)CC)c2c1 | HCT-116 colon | > 100 µM |
| COc1ccc(N=C2S/C(=N\C(=Nc3ccccc3)SCc3ccccc3)N(c3ccccc3)C2=Nc2ccc(OC)cc2)cc1 | HCT-116 colon | > 100 µM |
| COc1cc(/C=C2/SC(c3ccccc3)N(Cc3ccccc3)C2=O)cc(OC)c1OC (stereo not given) | HCT-116 colon | > 100 µM |
| COC1OC(CO)C(O)C(OC(C)=O)C1NC(=O)N(CCCl)N=O (stereo not given) | HCT-116 colon | > 100 µM |
| O=C1/C(=N\O)c2ccccc2S1(=O)=O | HCT-116 colon | > 100 µM |
| S=C(NNC1=NCCCCN1)Nc1ccc(Cl)cc1 | HCT-116 colon | > 100 µM |
| C=C1CC2CCCC12C=O (stereo not given) | HCT-116 colon | > 10 µM |
| CCC(CC)c1nc(Nc2ccc(C(=O)OC)cc2)c2ccccc2n1 | HCT-116 colon | > 28.6 µM |
